Just for reference, PubChem BioAssay (NCI) is where these values come from.

Test system: SR leukemia
Assay: NCI tumour cell line growth inhibition, 48 h
MEASURED ATTRIBUTE: TGI (µM)
Report as a plain number; the unit µM is understood.

Field request: TGI | item: "CC1=NN(C(=O)c2nn(-c3ccc(Cl)cc3)cc2O)C(=O)C1"
7.97

Field request: TGI | item: CCSC12CC3c4cccc5c4C(CN5C(=O)c4ccccc4)CC3(O1)N(C)C2=O (centres undefined)
77.6

====

System: RPMI-8226 leukemia
Test: NCI tumour cell line growth inhibition, 48 h
Provide the reported TGI of each item.

Field request: TGI | item: "O=c1oc2c(ccc3c(O)cccc32)c2c1CCCC2"
> 100 µM

Field request: TGI | item: "COc1cc(Cc2ccc3c(c2C#N)N(C)c2ccccc2S3)cc(OC)c1OC"
> 100 µM

Field request: TGI | item: "Cc1ncc(CO)c(C=NCCCCCCN=Cc2c(CO)cnc(C)c2O)c1O"
> 100 µM

Field request: TGI | item: OC1c2ccccc2C2C(O)c3ccccc3C12 (stereo not drawn)
> 100 µM

Field request: TGI | item: "O=C(O)CN=c1c2ccccc2n(O)c2ccccc12"
> 100 µM

Field request: TGI | item: "COc1ccc(/C=C(\Cl)c2ccc(OC)cc2)cc1"
> 100 µM

Field request: TGI | item: C#CC(O)Cc1ccc(OC)c2occc12 (stereo not drawn)
> 100 µM

Field request: TGI | item: "CC(=O)Oc1cc(S(=O)(=O)Nc2n[nH]c(N)n2)c(S)cc1Cl"
> 100 µM

Field request: TGI | item: "Nc1nc(NCCOCP(=O)(O)O)c(N)c(=O)[nH]1"
> 100 µM

Field request: TGI | item: "Cc1ccc(-c2c3c(N)c4c(nc3nc3c2c(C)nn3-c2ccccc2)CCC4)cc1"
5.53 µM

Field request: TGI | item: "Cc1ccc(S(=O)(=O)Nc2cc(Sc3ccccc3)c(O)c3ccccc23)cc1"
22.8 µM

Field request: TGI | item: COC1C(O)C(C)OC(O[C@@H]2C[C@H]3CC[C@@H]4[C@H](CC[C@]5(C)[C@@H](C6=CC(=O)OC6)CC[C@]45O)[C@@]3(C)[C@H](O)C2)C1O (stereo partly drawn)
0.0725 µM

Field request: TGI | item: COC(=O)CNCC1OC2OC(C)(C)OC2C1N=[N+]=[N-] (stereo not drawn)
> 100 µM

====

System: OVCAR-3 ovarian
Test: NCI tumour cell line growth inhibition, 48 h
MEASURED ATTRIBUTE: TGI

Field request: TGI | item: "COc1cc2nc(N3CCC[C@@H](NC4=CC(=O)c5ccccc5C4=O)C3)nc(N)c2cc1OC"
3.81 µM

Field request: TGI | item: "CC(=O)/C(=C(/Br)I)c1ccccc1"
17.9 µM

Field request: TGI | item: "Cc1nc(Nc2nc3ccccc3[nH]2)[nH]c(=O)c1CCO"
> 100 µM

Field request: TGI | item: CCOC(=O)/C=C1\Oc2ccccc2C1(C)O (centres undefined)
> 100 µM

Field request: TGI | item: "CC#Cc1c(C#CC)c(OC)c2c(c1OC)C(=O)c1ccccc1C2=O"
> 100 µM

Field request: TGI | item: "Nc1cc(-c2ccccc2)n(C(=O)Nc2ccc(Oc3ccccc3)cc2)n1"
> 100 µM

Field request: TGI | item: CC(=O)C1C(=O)C(=O)N(c2ccc(Br)cc2)C1=O (centres undefined)
> 100 µM

Field request: TGI | item: "Oc1ccc(Cn2c(-c3ccc(O)cc3)nc3ccccc32)cc1"
> 100 µM

Field request: TGI | item: "Cc1nc(N(CCO)CCO)c2sc(=S)n(-c3ccccc3)c2n1"
> 100 µM

Field request: TGI | item: NS(=O)(=O)c1ccc(N2N=C(c3cccs3)CC2c2ccccc2O)cc1 (centres undefined)
2.64 µM

Field request: TGI | item: "CN(C)CC1=Nc2cccc3cccc(c23)N1"
30.5 µM

Field request: TGI | item: "NC(=O)N/N=C(\CCC(=O)N(Cc1ccccc1)Cc1ccccc1)CC(=O)c1ccc(F)cc1"
> 100 µM

Field request: TGI | item: "Oc1ccccc1-n1nc2ccc3nonc3c2n1"
> 100 µM

Field request: TGI | item: "C=CC[C@H]1[C@H](O[Si](C)(C)C(C)(C)C)C=CC(=O)[C@@H]1CC(=O)OCC"
26.4 µM
